Tested on: Escherichia coli K-12
ASSAY: Inhibition of acrAB AcrAB-TolC in Escherichia coli K-12 3-AG100 overexpressing acrAB AcrAB-TolC assessed as [3H]TMG accumulation at 800 uM by scintillation counter method
VALUE_KIND: inhibition (%)
Return type: number; implicit unit %.

// fetch inhibition given entry `c1ccc2c(CN3CCNCC3)cccc2c1` 53

// fetch inhibition given entry `C[C@H]1c2cccc(O)c2C(=O)C2=C(O)[C@]3(O)C(=O)C(C(N)=O)=C(O)[C@@H](N(C)C)[C@@H]3[C@@H](O)[C@@H]21` 44

// fetch inhibition given entry `CN(C)[C@@H]1C(O)=C(C(N)=O)C(=O)[C@@]2(O)C(O)=C3C(=O)c4c(O)cccc4[C@@](C)(O)[C@H]3C[C@@H]12` 27

// fetch inhibition given entry `c1ccc([P+](c2ccccc2)(c2ccccc2)c2ccccc2)cc1` 97
